assay: Relative hydrophobicity by reversed-phase HPLC retention time (method of Hodges and coworkers); format: physicochemical; details: Kromasil C18, 0.2% TFA water/ACN linear gradient 0.25% ACN/min from 55% B, 0.3 mL/min, 25° C.; co-injection, FIG. 4
Attribute: retention time, tR (measure of hydrophobicity)

C[C@H](OC(C)(C)C)[C@@H](NC(=O)OCC1c2ccccc2-c2ccccc21)C(=O)O [D-Thr, (2R,3S)-N-Fmoc-O-tert-butyl-threonine]    9.2 min

-- ask What does the data say about its retention time, tR (measure of hydrophobicity)? Entry: C[C@@H](OC(C)(C)C)[C@H](NC(=O)OCC1c2ccccc2-c2ccccc21)C(=O)O [L-Thr, (2S,3R)-N-Fmoc-O-tent-butyl-threonine]
-- reply 9.2 min

-- ask // query retention time, tR (measure of hydrophobicity) value for entry CC(C)(C)O[C@@H]([C@@H](NC(=O)OCC1c2ccccc2-c2ccccc21)C(=O)O)C(F)(F)F [allo-D-tfT]
-- reply 11.6 min

---

assay: Relative hydrophobicity by reversed-phase HPLC retention time (method of Hodges and coworkers); format: physicochemical; settings: Kromasil C18, 0.2% TFA water/ACN linear gradient 0.25% ACN/min from 55% B, 0.3 mL/min, 25° C.; co-injection, FIG. 4
assay-endpoint: retention time, tR (measure of hydrophobicity) (min)
Number in min, nothing else.

Check out these entries, answers already filled in.
C[C@@H](OC(C)(C)C)[C@@H](NC(=O)OCC1c2ccccc2-c2ccccc21)C(=O)O    7.2
CC(C)(C)O[C@H]([C@H](NC(=O)OCC1c2ccccc2-c2ccccc21)C(=O)O)C(F)(F)F    11.6

Proceed to the following item.
-- ask I have this molecule here, "C[C@H](OC(C)(C)C)[C@H](NC(=O)OCC1c2ccccc2-c2ccccc21)C(=O)O" , and I need its recorded retention time, tR (measure of hydrophobicity).
-- reply 7.2
